- test description: amyloid nucleation score (Sup35N fusion, yeast selection) (log enrichment); library NNK1; higher = more nucleation; inactive = no reads after selection;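 also: zero at mode of non-aggregating sequences after 7 days selection at 30°C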
Lab note: compare amyloid nucleation score against 0.1. Equal or greater, write 1. Smaller, write 0.

>>> df
              substance  answer_label
0  IDCGIVRWKNRCGAYAFGVD             0
1              AFGMSLGG             1
2  WISEYGWFRIKFAWAAYGYR             0
3      AIRMLSISCNFMVVIL             1
4               DVLVHLP             0
5  SFSTKPTCRPPILHSLERVT             1
6  LNAESLMSRFVCGMFVVTKG             1
7    YDPRIGLVSVGNVRNNSV             0
